Entries and their T1/2
Assayed system: T1, Peptide B (human PAR-2), unbiotinylated (Human)
T1 construct: also called Peptide B No Biotin
T1 peptide: SLIGKVDGTSHVTG
Measurement notes: SPR, antibody captured
Answer with the number, then the unit.

Consider the reported T1/2 for these binders:
>>> assay_result("H2M589N (antibody, V domains shown, chimeric: human variable, mouse constant domains) VH: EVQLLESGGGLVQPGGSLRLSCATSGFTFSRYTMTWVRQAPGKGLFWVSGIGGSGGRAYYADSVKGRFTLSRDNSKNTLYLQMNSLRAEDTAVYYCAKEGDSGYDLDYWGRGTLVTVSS VL: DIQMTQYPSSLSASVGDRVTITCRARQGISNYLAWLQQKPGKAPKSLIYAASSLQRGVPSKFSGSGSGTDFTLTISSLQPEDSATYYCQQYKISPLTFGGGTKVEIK")
"7.3 min"
>>> assay_result("H2M618N (antibody, V domains shown, chimeric: human variable, mouse constant domains) VH: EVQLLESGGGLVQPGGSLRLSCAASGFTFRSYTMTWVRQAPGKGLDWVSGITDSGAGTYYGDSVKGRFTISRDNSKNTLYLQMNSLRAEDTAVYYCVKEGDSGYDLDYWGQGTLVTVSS VL: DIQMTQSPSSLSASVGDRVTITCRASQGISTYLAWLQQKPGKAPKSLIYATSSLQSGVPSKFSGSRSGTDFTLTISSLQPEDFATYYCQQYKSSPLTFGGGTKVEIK")
"3.5 min"
>>> assay_result("H2M611N (antibody, V domains shown, chimeric: human variable, mouse constant domains) VH: EVQLLESGGGLVQPGGSLRLSCAASGFTFSSYAMTWVRQAPGKGLYWVSAISGSGGSAYYADSVKGRFTISRDNSKNTLYLQMNSLRAEDTAVYYCAKEGDSGYDLDYWGRGTLVTVSS VL: DIQMTQSPSSLSASVGDRVTITCRARQGISNYLAWLQQKPGKAPKSLIYAASSLQSGVPSKFSGSGSGTDFTLTISSLQPEDFATYYCQQYKSSPLTFGGGTKVEIK")
"1.2 min"
>>> assay_result("H2M591N (antibody, V domains shown, chimeric: human variable, mouse constant domains) VH: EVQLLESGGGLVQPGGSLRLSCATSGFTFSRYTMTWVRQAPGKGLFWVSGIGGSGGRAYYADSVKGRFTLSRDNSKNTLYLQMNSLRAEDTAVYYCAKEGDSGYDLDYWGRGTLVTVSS VL: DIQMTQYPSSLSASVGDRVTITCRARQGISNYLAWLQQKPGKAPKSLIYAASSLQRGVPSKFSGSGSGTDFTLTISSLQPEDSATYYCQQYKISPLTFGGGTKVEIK")
"8.1 min"

The record that follows has no T1/2 shown yet.
Query (binder): H2M588N (antibody, V domains shown, chimeric: human variable, mouse constant domains) VH: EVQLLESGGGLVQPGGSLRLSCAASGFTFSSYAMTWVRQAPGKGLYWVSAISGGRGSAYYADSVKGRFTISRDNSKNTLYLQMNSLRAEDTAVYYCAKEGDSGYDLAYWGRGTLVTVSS VL: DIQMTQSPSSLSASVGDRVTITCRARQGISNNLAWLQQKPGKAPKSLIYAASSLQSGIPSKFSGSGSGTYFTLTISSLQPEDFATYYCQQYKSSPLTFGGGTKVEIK ; field requested: T1/2
7.7 min
